Study System: sGC α1/β1 heterodimer stably expressed in CHO-K1 cell line (CHO-K1/sGC) (Homo sapiens, UniProt Q02108+Q02153)
Construct: expressed in transfected cells
Sequence (Q02108 1-690): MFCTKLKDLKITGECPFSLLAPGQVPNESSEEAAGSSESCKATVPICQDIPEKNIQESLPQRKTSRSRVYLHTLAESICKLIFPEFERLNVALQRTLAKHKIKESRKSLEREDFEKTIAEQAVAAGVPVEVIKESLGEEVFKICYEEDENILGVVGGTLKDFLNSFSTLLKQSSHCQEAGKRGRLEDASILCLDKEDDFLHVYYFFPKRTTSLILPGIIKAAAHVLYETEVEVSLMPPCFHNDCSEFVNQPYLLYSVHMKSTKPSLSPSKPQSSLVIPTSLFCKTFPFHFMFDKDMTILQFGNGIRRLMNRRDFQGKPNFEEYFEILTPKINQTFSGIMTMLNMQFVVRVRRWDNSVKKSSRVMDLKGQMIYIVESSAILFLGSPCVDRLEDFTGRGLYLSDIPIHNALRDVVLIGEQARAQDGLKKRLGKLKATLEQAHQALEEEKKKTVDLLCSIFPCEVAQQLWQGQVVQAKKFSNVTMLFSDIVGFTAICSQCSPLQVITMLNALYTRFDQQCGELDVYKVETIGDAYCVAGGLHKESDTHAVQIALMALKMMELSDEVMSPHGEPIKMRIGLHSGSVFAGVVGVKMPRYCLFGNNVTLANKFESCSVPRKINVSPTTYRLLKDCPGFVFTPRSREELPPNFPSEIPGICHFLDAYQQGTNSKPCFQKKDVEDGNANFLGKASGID
Sequence (Q02153 1-619): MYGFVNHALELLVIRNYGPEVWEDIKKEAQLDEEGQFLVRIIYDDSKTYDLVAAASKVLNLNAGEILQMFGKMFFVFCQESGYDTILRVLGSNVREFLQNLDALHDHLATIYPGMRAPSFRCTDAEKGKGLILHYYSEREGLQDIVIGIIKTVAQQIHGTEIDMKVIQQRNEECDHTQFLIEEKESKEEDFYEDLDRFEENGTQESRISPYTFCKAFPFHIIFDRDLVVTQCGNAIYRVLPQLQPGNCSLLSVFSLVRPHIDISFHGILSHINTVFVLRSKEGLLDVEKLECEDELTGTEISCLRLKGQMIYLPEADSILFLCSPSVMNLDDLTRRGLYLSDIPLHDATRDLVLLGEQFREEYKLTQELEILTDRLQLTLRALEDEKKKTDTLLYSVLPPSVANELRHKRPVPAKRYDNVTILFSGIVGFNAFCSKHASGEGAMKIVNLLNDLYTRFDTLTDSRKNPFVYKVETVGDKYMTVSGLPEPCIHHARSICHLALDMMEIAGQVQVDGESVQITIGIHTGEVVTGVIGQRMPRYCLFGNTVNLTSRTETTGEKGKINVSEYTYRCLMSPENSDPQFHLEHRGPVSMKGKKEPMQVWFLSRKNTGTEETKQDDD
Measurement Protocol: Cell-based sGC Functional Assay (CASA Assay), cGMP generation
Condition Set: CHO-K1/sGC cells, 1 hr at 37° C., cGMP by HTRF, 4P fit; presence or absence of 1 μM DETA-NO not given; read-out: IP (nM) (inflection point)
Parameter Measured: EC50 (nM)

Some entries whose results are on file:
CC1(c2ccc(Cl)c(F)c2)C(=O)Nc2nc(-c3cn4ncnc4c(CCCC(F)(F)F)n3)nc(N)c21 (stereo not shown) [Example 28B]
20
CC1(c2ccc(Cl)cn2)C(=O)Nc2nc(-c3cn4ncnc4c(CCCC(F)(F)F)n3)nc(N)c21 (stereo not shown) [Example 26A]
27.8

(a) CC1(c2ccc(Cl)cc2)C(=O)Nc2nc(-c3cn4ncnc4c(CCC(F)(F)C(F)(F)F)n3)nc(O)c21 (stereo not shown) [Example 126A]
(b) CCCCc1nc(-c2nc(O)c3c(n2)NC(=O)[C@@]3(C)c2ccc(F)cc2)cn2ncnc12 [Example 154A]
Ask: Hey, which is lower on measured EC50, a or b ? Answer with the label corresponding to your selection.
Result: b
